Test: Toxicity in human HuH7 cells assessed as effect on GAPDH mRNA level
Type: cell-based, Huh-7
pIC50: −log10 of the molar value.
Endpoint: pIC50

Test Smiles: Cc1cc2c(cc1F)c(C#N)c(-c1ccc(S(=O)(=O)N[C@@H](C)C(F)(F)F)cn1)n2-c1cccs1
Measurement: < 5.00

Test Smiles: Cc1cc2c(cc1F)c(C#N)c(-c1ccc(S(=O)(=O)N[C@@H](C)C(F)(F)F)cn1)n2-c1nccs1
Measurement: < 5.00

Test Smiles: Cc1cc2c(C#N)c(-c3ccc(S(=O)(=O)N[C@@H](C)C(F)(F)F)cn3)n(C3CCC3)c2cc1OC(F)F
Measurement: 5.00

Let us examine a further case.
Inquiry: Find the measured pIC50 of `Cc1cc2c(cc1F)c(C#N)c(-c1ccc(S(=O)(=O)N[C@@H](C)C(F)(F)F)cn1)n2-c1ccccn1` and report it.
Reply text: < 5.00

###

Test: Volume of distribution at steady state in cynomolgus monkey at 2.5 mg/kg, iv and 5 mg/kg, po
Assay type: ADME, organism-based, Macaca fascicularis
Applied Conditions: in vivo, read-out: Vdss
Endpoint: Vd (L/kg)
Reply numerically in L/kg, unit not repeated.

Inquiry: Find the measured Vd of `CCc1cc2c(cc1F)c(C#N)c(-c1ccc(S(=O)(=O)N[C@@H](C)C(F)(F)F)cn1)n2-c1ncccn1` and report it.
Reply text: 3.8

###

Test: Cmax in Sprague-Dawley rat at 10 mg/kg, po
Format: ADME, organism-based
Design: dose 10 mg/kg, route oral
Applied Conditions: in vivo
Endpoint: Cmax (µM)
Reply numerically in µM, unit not repeated.

Inquiry: Find the measured Cmax of `CCc1cc2c(cc1F)c(C#N)c(-c1ccc(S(=O)(=O)N[C@@H](C)C(F)(F)F)cn1)n2-c1ncccn1` and report it.
Reply text: 2.4

###

Test: Terminal half life in beagle dog at 2.5 mg/kg, iv
Type: ADME, organism-based, Canis lupus familiaris
Design: dose 2.5 mg/kg, route intravenous
Applied Conditions: in vivo, read-out: beta t1/2 (converted)
Measured half-life accompanies every entry in the list below.
Reply numerically in h, unit not repeated.

Test Smiles: C[C@H](NS(=O)(=O)c1ccc(-c2c(C#N)c3cc(F)c(OC(F)F)cc3n2C2CCC2)nc1)C(F)(F)F
half-life / h: 149

Let us examine a further case.
Inquiry: Find the measured half-life of `CCc1cc2c(cc1F)c(C#N)c(-c1ccc(S(=O)(=O)N[C@@H](C)C(F)(F)F)cn1)n2-c1ncccn1` and report it.
Reply text: 8.9

###

Test: AUC (0 to infinity) in beagle dog at 5 mg/kg, po
Assay type: ADME, organism-based, Canis lupus familiaris, Plasma
Set-up: dose 5 mg/kg, route oral, time infinity
Applied Conditions: beagle, plasma
Endpoint: AUC(0-inf) (µM·h)
Reply numerically in µM·h, unit not repeated.

Inquiry: Find the measured AUC(0-inf) of `CCc1cc2c(cc1F)c(C#N)c(-c1ccc(S(=O)(=O)N[C@@H](C)C(F)(F)F)cn1)n2-c1ncccn1` and report it.
Reply text: 29

###

Test: Oral bioavailability in beagle dog at 5 mg/kg
Format: ADME, organism-based, Canis lupus familiaris
Applied Conditions: beagle, in vivo
Endpoint: bioavailability (%)
Reply numerically in %, unit not repeated.

Inquiry: Find the measured bioavailability of `CCc1cc2c(cc1F)c(C#N)c(-c1ccc(S(=O)(=O)N[C@@H](C)C(F)(F)F)cn1)n2-c1ncccn1` and report it.
Reply text: 78

This collection of values is drawn from ChEMBL document CHEMBL3120098.
